molecular target: Delta-type opioid receptor (Homo sapiens); experiment: Displacement of [3H]DPDPE from recombinant human delta-opioid receptor expressed in HEK293 cell membranes after 60 mins by liquid scintillation counting method
Sequence (P41143 whole entry): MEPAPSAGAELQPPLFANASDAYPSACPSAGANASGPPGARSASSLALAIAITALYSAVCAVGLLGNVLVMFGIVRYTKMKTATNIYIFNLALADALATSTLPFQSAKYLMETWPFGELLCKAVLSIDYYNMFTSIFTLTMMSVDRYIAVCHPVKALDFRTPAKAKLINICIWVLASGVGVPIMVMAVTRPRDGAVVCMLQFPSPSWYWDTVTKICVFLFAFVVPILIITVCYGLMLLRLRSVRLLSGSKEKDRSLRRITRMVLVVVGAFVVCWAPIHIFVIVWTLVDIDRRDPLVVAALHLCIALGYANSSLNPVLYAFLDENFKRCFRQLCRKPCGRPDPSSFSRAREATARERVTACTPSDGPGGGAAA
pKi: −log10 of the molar value.
endpoint: pKi

[
  {
    "compound": "Cc1cc(C)cc(C2CCCN2Cc2ccc(Oc3ccc(C(N)=O)cc3)c(F)c2)c1 (configuration not stated)",
    "relational.operator": "=",
    "reported.result": 6.57
  },
  {
    "compound": "Cc1cc(C)cc(C2CCCN2Cc2ccc(Oc3ccc(C(N)=O)cc3)c(Cl)c2)c1 (configuration not stated)",
    "relational.operator": "=",
    "reported.result": 6.31
  },
  {
    "compound": "Cc1cc(C)cc(C2CCCN2Cc2ccc(Oc3ccc(C(N)=O)cc3F)c(Cl)c2)c1 (configuration not stated)",
    "relational.operator": "=",
    "reported.result": 6.72
  },
  {
    "compound": "Cc1cc(C)cc(C2CCCN2Cc2ccc(Oc3ccc(C(N)=O)cc3F)cc2)c1 (racemic)",
    "relational.operator": "=",
    "reported.result": 7.04
  },
  {
    "compound": "COc1ccc(C2CCCN2Cc2ccc(Oc3ccc(C(N)=O)c4ccccc34)cc2)cc1 (configuration not stated)",
    "relational.operator": "<",
    "reported.result": 5.00
  },
  {
    "compound": "Cc1cc(C)cc(C2CCCN2Cc2ccc(Oc3ccc(C(N)=O)cc3F)c(F)c2)c1 (configuration not stated)",
    "relational.operator": "=",
    "reported.result": 6.37
  },
  {
    "compound": "Cc1cccc(C2CCCN2Cc2ccc(Oc3ccc(C(N)=O)c4ccccc34)cc2)c1 (configuration not stated)",
    "relational.operator": "<",
    "reported.result": 5.00
  }
]

* * *

test: Half life in rat at 1 or 10 mg/kg, iv or po by LC-MS/MS analysis; assay type: ADME, organism-based; settings: in vivo
endpoint: half-life

[
  {
    "molecule": "Cc1cc(C)cc([C@@H]2CCCN2Cc2ccc(Oc3ccc(C(N)=O)cc3F)cc2)c1 [ATICAPRANT]",
    "reported.result": "2 to 4 h"
  }
]

* * *

species on record: Homo sapiens; experiment: Selectivity ratio of Ki for displacement of [3H]DPDPE from recombinant human delta-opioid receptor expressed in HEK293 cell membranes to Ki for displacement of [3H]U69593 from recombinant human kappa-opioid receptor expressed in CHO cell membranes

[
  {
    "molecule": "Cc1cc(C)cc(C2CCCN2Cc2ccc(Oc3ccc(C(N)=O)cc3)c(Cl)c2)c1 (configuration not stated)",
    "relational.operator": "=",
    "Ratio Ki": 13
  },
  {
    "molecule": "Cc1cccc(C2CCCN2Cc2ccc(Oc3ccc(C(N)=O)c4ccccc34)cc2)c1 (configuration not stated)",
    "relational.operator": ">",
    "Ratio Ki": 5.8
  },
  {
    "molecule": "COc1ccc(C2CCCN2Cc2ccc(Oc3ccc(C(N)=O)c4ccccc34)cc2)cc1 (configuration not stated)",
    "relational.operator": ">",
    "Ratio Ki": 2.2
  },
  {
    "molecule": "Cc1cc(C)cc(C2CCCN2Cc2ccc(Oc3ccc(C(N)=O)cc3)c(F)c2)c1 (configuration not stated)",
    "relational.operator": "=",
    "Ratio Ki": 9
  },
  {
    "molecule": "Cc1cc(C)cc(C2CCCN2Cc2ccc(Oc3ccc(C(N)=O)cc3F)c(Cl)c2)c1 (configuration not stated)",
    "relational.operator": "=",
    "Ratio Ki": 12.2
  },
  {
    "molecule": "Cc1cc(C)cc(C2CCCN2Cc2ccc(Oc3ccc(C(N)=O)cc3F)c(F)c2)c1 (configuration not stated)",
    "relational.operator": "=",
    "Ratio Ki": 10.1
  },
  {
    "molecule": "Cc1cc(C)cc(C2CCCN2Cc2ccc(Oc3ccc(C(N)=O)cc3F)cc2)c1 (racemic)",
    "relational.operator": "=",
    "Ratio Ki": 7.6
  }
]

The reported measurements were obtained from ChEMBL document CHEMBL4049389.
